Biological target: T1, CRBN, Q96SW2;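 note: pooled lentiviral library of zinc finger degron-EGFP fusions in mCherry-positive Jurkat cells, FACS-sorted after compound exposure, with degron abundance counted by next-generation sequencing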
T1 chain: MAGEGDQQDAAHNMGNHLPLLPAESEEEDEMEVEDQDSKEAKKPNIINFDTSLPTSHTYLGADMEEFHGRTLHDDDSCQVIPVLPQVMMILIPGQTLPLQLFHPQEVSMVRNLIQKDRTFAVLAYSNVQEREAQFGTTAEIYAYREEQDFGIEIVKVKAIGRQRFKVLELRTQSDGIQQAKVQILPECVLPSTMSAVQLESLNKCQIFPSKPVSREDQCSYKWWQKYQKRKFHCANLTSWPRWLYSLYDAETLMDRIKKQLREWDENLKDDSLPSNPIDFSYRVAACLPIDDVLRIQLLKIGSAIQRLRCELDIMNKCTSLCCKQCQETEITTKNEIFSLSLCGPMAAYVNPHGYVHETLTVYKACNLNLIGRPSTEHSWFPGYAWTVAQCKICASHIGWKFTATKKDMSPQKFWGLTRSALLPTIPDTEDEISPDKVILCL
Assay: log2 fold change of degron read counts, EGFP-low vs EGFP+ sorted cells (limma voom), compound-induced degradation; higher = more compound-induced degradation of the degron-EGFP fusion; degrons are variants of IKZF1/3 zinc finger 2; compound dose not given here
Conditions: Jurkat; 18 h; compound: compound 22 (5-morpholino-thalidomide)
Whole data set: some 8,300 sequences, median “log2 fold change of degron read counts, EGFP-low vs EGFP+ sorted cells (limma voom), compound-induced degradation” near -1.1, cut for the highest 2% near 3.2. Many of the other results were omitted from the sample, so the highest values are more common in it than they were.
Task for the reader: assign each of the following sequences its reported log2 fold change of degron read counts.
One number for each entry.

These recorded examples may help you get a feel for the data.
Recall and state the measured log2 fold change of degron read counts for FHCEICGAFFTQKGNLLRHIKL [46F_47H_49E_50I_52G_53A_54F_55F_67L_, Q9UKT9] . -0.276

Recall and state the measured log2 fold change of degron read counts for FQCPICGHTFTQKGNLLRHIKL [46F_47Q_49P_50I_52G_53H_54T_55F_67L_, Q9UKT9] . -2.01

Recall and state the measured log2 fold change of degron read counts for FTCEICGAQFTQKGNLLRHIKL [46F_47T_49E_50I_52G_53A_54Q_55F_67L_, Q9UKT9] . 1.85

State the recorded log2 fold change of degron read counts for every item in the following list.
1. FDCEICGAPFTQKGNLLRHIKL [46F_47D_49E_50I_52G_53A_54P_55F_67L_, Q9UKT9]
2. FACEICGAPFTQKGNLLRHIKL [46F_47A_49E_50I_52G_53A_54P_55F_67L_, Q9UKT9]
3. FLCDICGASFTQKGNLLRHIKL [46F_47L_49D_50I_52G_53A_54S_55F_67L_, Q9UKT9]
4. FECEICGAQFTQKGNLLRHIKL [46F_47E_49E_50I_52G_53A_54Q_55F_67L_, Q9UKT9]
5. LRCPICGFKCTQKGNLLRHIKL [46L_47R_49P_50I_52G_53F_54K_55C_67L_, Q9UKT9]

0.891
2.51
-1.41
-0.866
-0.151

State the recorded log2 fold change of degron read counts for every item in the following list.
1. LDCPICGFKCTQKGNLLRHIKL [46L_47D_49P_50I_52G_53F_54K_55C_67L_, Q9UKT9]
2. FHCEICGADFTQKGNLLRHIKL [46F_47H_49E_50I_52G_53A_54D_55F_67L_, Q9UKT9]
3. FVCNQCGHTFTQKGNLLRHIKL [46F_47V_49N_50Q_52G_53H_54T_55F_67L_, Q9UKT9]
4. FQCEICGRPFTQKGNLLRHIKL [46F_47Q_49E_50I_52G_53R_54P_55F_67L_, Q9UKT9]
5. FICEICGAPFTQKGNLLRHIKL [46F_47I_49E_50I_52G_53A_54P_55F_67L_, Q9UKT9]

1: 0.0419; 2: -3.23; 3: -3.28; 4: -0.383; 5: 3.53

State the recorded log2 fold change of degron read counts for every item in the following list.
1. FMCEICGAQFTQKGNLLRHIKL [46F_47M_49E_50I_52G_53A_54Q_55F_67L_, Q9UKT9]
2. LECPICGFKCTQKGNLLRHIKL [46L_47E_49P_50I_52G_53F_54K_55C_67L_, Q9UKT9]
3. FNCEQCGAPFTQKGNLLRHIKL [46F_47N_49E_50Q_52G_53A_54P_55F_67L_, Q9UKT9]
4. FECEICGAPFTQKGNLLRHIKL [46F_47E_49E_50I_52G_53A_54P_55F_67L_, Q9UKT9]
5. FDCNVCGATFTQKGNLLRHIKL [46F_47D_49N_50V_52G_53A_54T_55F_67L_, Q9UKT9]
6. FFCNQCGRTFTQKGNLLRHIKL [46F_47F_49N_50Q_52G_53R_54T_55F_67L_, Q9UKT9]

1. 0.824
2. -0.257
3. -2
4. -0.51
5. -2.32
6. -2.17
